Target: Mu-type opioid receptor (Homo sapiens)
Sequence (P35372 whole entry): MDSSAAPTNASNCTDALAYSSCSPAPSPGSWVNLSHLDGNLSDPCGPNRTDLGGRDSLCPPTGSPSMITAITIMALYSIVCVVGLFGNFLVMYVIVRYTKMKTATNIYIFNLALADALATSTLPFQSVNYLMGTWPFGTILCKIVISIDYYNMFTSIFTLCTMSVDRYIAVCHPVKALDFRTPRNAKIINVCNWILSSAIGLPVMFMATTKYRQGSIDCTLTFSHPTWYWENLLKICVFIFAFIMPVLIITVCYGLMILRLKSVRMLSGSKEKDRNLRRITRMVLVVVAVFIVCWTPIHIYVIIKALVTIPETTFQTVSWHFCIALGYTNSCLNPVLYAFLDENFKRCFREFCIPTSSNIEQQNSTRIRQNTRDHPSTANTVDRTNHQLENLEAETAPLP
Test: Agonist potency using GTP-gamma [35S]- binding assay for mu-opioid receptor
Reported EC50 is given for each of the following compounds.
measurement label: EC50 (nM)

>>> print(df.to_string())
                                 cpd_smiles  measured
0  Cc1cc(O)cc(C)c1C[C@H](N)C(=O)N1Cc2ccccc2C[C@H]1CNC(=O)Nc1ccccc1      18.8
1  Cc1cc(O)cc(C)c1C[C@H](N)C(=O)N1Cc2ccccc2C[C@H]1CNCc1ccccc1      37.1
2  Cc1cc(O)cc(C)c1C[C@H](N)C(=O)N1Cc2ccccc2C[C@H]1CNC(=O)c1ccccc1       109

---

Target: Delta-type opioid receptor (Homo sapiens, UniProt P41143)
Sequence (P41143 whole entry): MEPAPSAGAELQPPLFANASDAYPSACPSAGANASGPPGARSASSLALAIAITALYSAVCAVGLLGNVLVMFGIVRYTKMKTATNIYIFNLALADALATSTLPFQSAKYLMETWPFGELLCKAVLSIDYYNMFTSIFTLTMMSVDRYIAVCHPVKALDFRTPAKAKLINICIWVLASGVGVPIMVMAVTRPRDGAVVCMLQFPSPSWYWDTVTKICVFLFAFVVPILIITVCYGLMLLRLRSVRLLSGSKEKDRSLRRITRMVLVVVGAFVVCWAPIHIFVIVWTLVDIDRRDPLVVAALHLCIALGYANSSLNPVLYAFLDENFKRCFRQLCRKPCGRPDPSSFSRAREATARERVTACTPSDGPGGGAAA
Experiment: Agonist potency using GTP-gamma [35S]- binding assay for delta-opioid receptor
measurement label: EC50 (nM)

                                 cpd_smiles  unit_abbreviation  measured
0  Cc1cc(O)cc(C)c1C[C@H](N)C(=O)N1Cc2ccccc2C[C@H]1CNC(=S)Nc1ccccc1                 nM       1.7
1  Cc1cc(O)cc(C)c1C[C@H](N)C(=O)N1Cc2ccccc2C[C@H]1CNC(=S)NC(C)(C)C                 nM      0.32
2  CCNC(=O)NC[C@@H]1Cc2ccccc2CN1C(=O)[C@@H](N)Cc1c(C)cc(O)cc1C                 nM       5.7
3  CC(=O)NC[C@@H]1Cc2ccccc2CN1C(=O)[C@@H](N)Cc1c(C)cc(O)cc1C                 nM       1.5
4  Cc1cc(O)cc(C)c1C[C@H](N)C(=O)N1Cc2ccccc2C[C@H]1COCc1ccccc1                 nM      0.97
5  Cc1cc(O)cc(C)c1C[C@H](N)C(=O)N1Cc2ccccc2C[C@H]1CN=[N+]=[N-]                 nM      49.4
6  Cc1cc(O)cc(C)c1C[C@H](N)C(=O)N1Cc2ccccc2C[C@H]1CNCc1ccccc1                 nM      0.92
7  Cc1cc(O)cc(C)c1C[C@H](N)C(=O)N1Cc2ccccc2C[C@H]1CNC(=O)Nc1ccccc1                 nM      0.75
8  Cc1cc(O)cc(C)c1C[C@H](N)C(=O)N1Cc2ccccc2C[C@H]1CNC(=O)NC(C)(C)C                 nM      0.65
9  Cc1cc(O)cc(C)c1C[C@H](N)C(=O)N1Cc2ccccc2C[C@H]1CNCC(C)(C)C                 nM       2.8
